Can you tell me growth inhibition for the items I'm about to list?
assay: NCI Yeast Anticancer Drug Screen. Data for the mec2-1 strain (AID 157); conditions: S. cerevisiae mec2-1 strain, at 50.0 µM, stronger effect = higher value
About 79,000 compounds went through this panel and 15% of them were active in at least one assay; those are over-represented in the sample as a whole.
Numbers only, in %.

compound: COc1ccccc1NC(=S)N1CCC(CCCC2CCN(C(=S)Nc3ccccc3OC)CC2)CC1
endpoint: growth inhibition
numeric.readout: -22.9
//
compound: CCN(CC)c1ccc2cc(-c3nc4ccccc4[nH]3)c(=O)oc2c1
endpoint: growth inhibition
numeric.readout: -5.3
//
compound: CC(=O)Nc1nc(NC(C)=O)c2nc(CCN(C)c3ccc(C(=O)O)cc3)cnc2n1
endpoint: growth inhibition
numeric.readout: -18.4

// each listed compound needs a value for growth inhibition
1. CC1=CC2=NC(=O)C(c3ccccc3)C(=O)N2C=C1 (stereo not drawn)
2. CCOc1ccc(N=C2NC(=O)C(CC(=O)Nc3ccc(Cl)cc3Cl)S2)cc1 (stereo not drawn)

1. -27.4
2. 15.3
